The measured values listed here are drawn from patent US7968556B2.

compound | melting point
COc1ccccc1-n1c(=O)[nH]c2c(C(N)=O)nc(N[C@@H]3CCNC3)nc21 [Compound 105] | > 400 °C
CC(C)c1ccccc1-n1c(=O)[nH]c2c(C(N)=O)nc(-c3ccc4nc[nH]c4c3)nc21 [Compound 127] | 275 °C (dec.)
COc1ccccc1-n1c(=O)[nH]c2c(C(N)=O)nc(-c3ccc4cc[nH]c4c3)nc21 [Compound 11] | 203 to 204 °C
NC(=O)c1nc(-c2ccc(-c3nc[nH]n3)cc2)nc2c1[nH]c(=O)n2C1CCCCC1 [Compound 146] | 375 °C (dec.)
NC(=O)c1nc(-c2cccc(O)c2)nc2c1[nH]c(=O)n2-c1ccccc1Oc1ccccc1 [Compound 126] | 329 to 331 °C
CC(C)c1ccccc1-n1c(=O)[nH]c2c(C(N)=O)nc(-c3cnc4nc[nH]c4c3)nc21 [Compound 135] | 320 °C (dec.)
COc1ccccc1-n1c(=O)[nH]c2c(C(N)=O)nc(-n3cnc4ccccc43)nc21 [Compound 134] | 318 to 319 °C
COc1ccccc1-n1c(=O)[nH]c2c(C(N)=O)nc(Nc3cccc(O)c3)nc21 [Compound 45] | 190 to 191 °C
NC(=O)c1nc(-c2cccc(O)c2)nc2c1[nH]c(=O)n2[C@@H]1CCOC1 [Compound 162] | 353 to 355 °C
NC(=O)c1nc(-c2cccc(O)c2)nc2c1[nH]c(=O)n2C1CCOCC1 [Compound 151] | 361 to 363 °C
COc1ccccc1-n1c(=O)[nH]c2c(C(N)=O)nc(Nc3ccccc3O)nc21 [Compound 56] | 314 to 315 °C
NC(=O)c1nc(-c2cccnc2Cl)nc2c1[nH]c(=O)n2-c1ccccc1 [Compound 4] | 283 to 286 °C
CO[C@H]1CC[C@@H](n2c(=O)[nH]c3c(C(N)=O)nc(-c4cnc5nc[nH]c5c4)nc32)CC1 [Compound 168] | 360 °C (dec.)
NC(=O)c1nc(-c2cccc(O)c2)nc2c1[nH]c(=O)n2-c1cccc2c1CCCC2 [Compound 145] | > 250 °C
NC(=O)c1nc(-c2cccc(O)c2)nc2c1[nH]c(=O)n2[C@H]1CC[C@H](O)CC1 [Compound 47] | 366 to 368 °C
COc1ncccc1-c1nc(C(N)=O)c2[nH]c(=O)n(-c3ccccc3)c2n1 [Compound 5] | 279 to 281 °C
COc1ccccc1-n1c(=O)[nH]c2c(C(N)=O)nc(-c3cccc(C(N)=O)c3)nc21 [Compound 68] | 338 to 339 °C
NC(=O)c1nc(-c2cccc(O)c2)nc2c1[nH]c(=O)n2Cc1ccccc1 [Compound 23] | 362 to 366 °C
COc1ccccc1-n1c(=O)[nH]c2c(C(N)=O)nc(-c3cccc4ncccc34)nc21 [Compound 18] | 335 to 337 °C
Cn1c(=O)[nH]c2c(C(N)=O)nc(-c3cccnc3)nc21 [Compound 7] | > 350 °C
COc1ccccc1-n1c(=O)[nH]c2c(C(N)=O)nc(-c3cccc4[nH]ncc34)nc21 [Compound 128] | 280 °C
CC(C)Cn1c(=O)[nH]c2c(C(N)=O)nc(-c3cccc(O)c3)nc21 [Compound 142] | 374 to 376 °C
COc1ccccc1-n1c(=O)[nH]c2c(C(N)=O)nc(-c3ccc4nc[nH]c4c3)nc21 [Compound 91] | 306 °C
NC(=O)c1nc(-c2ccc(O)nc2)nc2c1[nH]c(=O)n2-c1ccccc1C(F)(F)F [Compound 100] | 348 to 352 °C (dec.)
COc1ccccc1-n1c(=O)[nH]c2c(C(N)=O)nc(-c3cccc4[nH]cnc34)nc21 [Compound 99] | 312 °C
CC(C)c1ccccc1-n1c(=O)[nH]c2c(C(N)=O)nc(-c3ccc4[nH]ccc4c3)nc21 [Compound 139] | 310 °C (dec.)
NC(=O)c1nc(-c2cccc(O)c2)nc2c1[nH]c(=O)n2-c1ccccc1C1CCCC1 [Compound 153] | > 260 °C
CNC(=O)c1nc(-c2cccnc2)nc2c1[nH]c(=O)n2-c1ccccc1 [Compound 2] | > 330 °C
NC(=O)c1nc(-c2cccc(O)c2)nc2c1[nH]c(=O)n2[C@H]1CCOC1 [Compound 163] | 354 to 356 °C
NC(=O)c1nc(-c2cccnc2O)nc2c1[nH]c(=O)n2-c1ccccc1C(F)(F)F [Compound 129] | 331 to 335 °C
CC(C)c1ccccc1-n1c(=O)[nH]c2c(C(N)=O)nc(-c3ccc(-c4ncc[nH]4)cc3)nc21 [Compound 133] | 340 °C (dec.)
COc1ccccc1-n1c(=O)[nH]c2c(C(N)=O)nc(-c3ccccc3C(F)(F)F)nc21 [Compound 29] | 237 to 240 °C

###

Reported IC50 values for a set of compounds
subjectOfTest: Syk (Homo sapiens, UniProt P43405)
Construct: purchased Cama Biosciences (so in the source)
testProtocol: Syk HTRF Assay
Format: biochemical

recordSmiles | IC50
COc1ccccc1-n1c(=O)[nH]c2c(C(N)=O)nc(-c3ccc(O)cc3)nc21 | > 30 µM
COc1ccccc1-n1c(=O)[nH]c2c(C(N)=O)nc(-c3cccc(N)c3)nc21 | > 30 µM

###

Reported IC50 values for a set of compounds
subjectOfTest: IKK-2 (Homo sapiens, UniProt O14920, S177E/S181E)
Sequence (O14920 whole entry S177E/S181E, species assumed): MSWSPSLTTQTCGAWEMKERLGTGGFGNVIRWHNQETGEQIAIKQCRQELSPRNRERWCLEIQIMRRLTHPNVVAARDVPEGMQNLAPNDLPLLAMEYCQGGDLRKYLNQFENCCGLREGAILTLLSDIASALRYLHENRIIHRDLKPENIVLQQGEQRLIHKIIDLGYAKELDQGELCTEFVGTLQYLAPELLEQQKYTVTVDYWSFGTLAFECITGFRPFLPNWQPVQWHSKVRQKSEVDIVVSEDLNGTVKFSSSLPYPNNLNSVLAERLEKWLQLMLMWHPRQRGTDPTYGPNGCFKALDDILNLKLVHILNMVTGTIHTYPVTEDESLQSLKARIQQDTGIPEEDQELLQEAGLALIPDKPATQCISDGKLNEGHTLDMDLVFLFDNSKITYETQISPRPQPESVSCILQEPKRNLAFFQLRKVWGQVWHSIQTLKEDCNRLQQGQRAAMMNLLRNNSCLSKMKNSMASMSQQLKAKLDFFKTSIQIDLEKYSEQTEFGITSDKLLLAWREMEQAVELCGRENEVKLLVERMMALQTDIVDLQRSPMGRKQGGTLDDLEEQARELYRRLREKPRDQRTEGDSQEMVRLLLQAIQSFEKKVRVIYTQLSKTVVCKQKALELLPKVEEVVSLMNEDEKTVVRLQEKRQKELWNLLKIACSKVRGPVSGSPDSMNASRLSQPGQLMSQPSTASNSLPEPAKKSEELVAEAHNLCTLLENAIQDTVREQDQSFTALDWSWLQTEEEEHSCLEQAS
testProtocol: IKK-2 screening assay (IKK2EE 33P Assay / IKK2EE NEMO HTRF Assay)

recordSmiles | IC50
COc1ccccc1-n1c(=O)[nH]c2c(C(N)=O)nc(-c3ccc4cc[nH]c4c3)nc21 | > 30 µM
NC(=O)c1nc(-c2cccnc2)nc2c1[nH]c(=O)n2Cc1ccccc1 | > 30 µM
NC(=O)c1nc(-c2ccncc2)nc2c1NC(=O)CN2c1ccccc1 | > 30 µM
NC(=O)c1nc(-c2cccnc2)nc2c1[nH]c(=O)n2[C@H]1CC[C@H](O)CC1 | 0.1 to 5 µM
Cc1ccccc1-n1c(=O)[nH]c2c(C(N)=O)nc(-c3cccc(O)c3)nc21 | > 30 µM
NC(=O)c1nc(-c2cccc(O)c2)nc2c1[nH]c(=O)n2-c1ccccc1F | > 30 µM
NC(=O)c1nc(-c2cccnc2)nc2c1ncn2-c1ccccc1 | 5.1 to 10 µM
NC(=O)c1nc(-c2ccccn2)nc2c1[nH]c(=O)n2-c1ccccc1 | 20.1 to 30 µM
COc1ncccc1-c1nc(C(N)=O)c2[nH]c(=O)n(-c3ccccc3)c2n1 | > 30 µM
N#Cc1cccc(-c2nc(C(N)=O)c3[nH]c(=O)n(-c4ccccc4)c3n2)c1 | > 30 µM
NC(=O)c1nc(-c2cccnc2)nc2c1NC(=O)CN2c1ccccc1 | > 30 µM
COc1ccccc1-n1c(=O)[nH]c2c(C(N)=O)nc(-c3cccc4[nH]ccc34)nc21 | > 30 µM
Cn1c(=O)[nH]c2c(C(N)=O)nc(-c3cccnc3)nc21 | > 30 µM
COc1ccccc1-n1c(=O)[nH]c2c(C(N)=O)nc(-c3ccc(O)cc3)nc21 | > 30 µM

###

subjectOfTest: IKK-2 (Homo sapiens, UniProt O14920, S177E/S181E)
testProtocol: IKK-2 screening assay (IKK2EE 33P Assay / IKK2EE NEMO HTRF Assay)
pIC50: −log10 of the molar value.
Reported pIC50 values for a set of compounds

recordSmiles | pIC50
COc1ccccc1-n1c(=O)[nH]c2c(C(N)=O)nc(-c3ccnc(O)c3)nc21 | < 4.52
COc1ccc(-n2c(=O)[nH]c3c(C(N)=O)nc(-c4cccc(O)c4)nc32)cc1 | 4.52 to 4.70
NC(=O)c1nc(-c2cccnc2Cl)nc2c1[nH]c(=O)n2-c1ccccc1 | < 4.52
NC(=O)c1nc(-c2cccc(O)c2)nc2c1[nH]c(=O)n2C1CCCCC1 | < 4.52
CNC(=O)c1nc(-c2cccnc2)nc2c1[nH]c(=O)n2-c1ccccc1 | < 4.52
CN(C)C(=O)c1nc(-c2cccnc2)nc2c1[nH]c(=O)n2-c1ccccc1 | < 4.52
NC(=O)c1nc(-c2cccc(O)c2)nc2c1[nH]c(=O)n2-c1ccccc1Cl | < 4.52
NC(=O)c1nc(-c2cccnc2)nc2c1[nH]c(=O)n2C1CCN(C(=O)OCc2ccccc2)CC1 | 4.70 to 5.00

###

pIC50: −log10 of the molar value.
Let's go through some pIC50 measurements on UniProtKB P42345 together.

recordSmiles | pIC50
NC(=O)c1nc(-c2cccnc2Cl)nc2c1[nH]c(=O)n2-c1ccccc1 | < 4.52
COc1ccccc1-n1c(=O)[nH]c2c(C(N)=O)nc(-c3cccc(O)c3Cl)nc21 | 5.30 to 7.00
NC(=O)c1nc(-c2cccc(O)c2)nc2c1[nH]c(=O)n2-c1cccc(F)c1 | < 4.52
COc1ccc(-n2c(=O)[nH]c3c(C(N)=O)nc(-c4cccc(O)c4)nc32)cc1 | 5.30 to 7.00
COc1ccccc1-n1c(=O)[nH]c2c(C(N)=O)nc(-c3cccc(O)c3F)nc21 | 5.30 to 7.00
NC(=O)c1nc(-c2ccncc2)nc2c1NC(=O)CN2c1ccccc1 | 4.70 to 5.00
NC(=O)c1nc(-c2ccc3nc[nH]c3c2)nc2c1[nH]c(=O)n2-c1ccccc1F | 5.30 to 7.00
COc1ccccc1-n1c(=O)[nH]c2c(C(N)=O)nc(-c3ccccc3C(F)(F)F)nc21 | < 4.52
NC(=O)c1nc(-c2cccc(O)c2)nc2c1[nH]c(=O)n2-c1ccccc1Cl | 5.30 to 7.00
NC(=O)c1nc(-c2cccc(O)c2)nc2c1[nH]c(=O)n2-c1ccccc1OC(F)(F)F | 5.00 to 5.29
CNC(=O)c1nc(-c2cccc(O)c2)nc2c1[nH]c(=O)n2-c1ccccc1OC | < 4.52
COc1ccccc1-n1cnc2c(C(N)=O)nc(-c3cccc(O)c3)nc21 | 4.70 to 5.00
N#Cc1cccc(-c2nc(C(N)=O)c3[nH]c(=O)n(-c4ccccc4)c3n2)c1 | 4.70 to 5.00
NC(=O)c1nc(-c2cccc(O)c2)nc2c1[nH]c(=O)n2-c1ccccc1F | 5.30 to 7.00
NC(=O)c1nc(-c2cccc(O)c2)nc2c1[nH]c(=O)n2-c1c(Cl)cccc1Cl | 5.30 to 7.00
COc1ccccc1-n1c(=O)[nH]c2c(C(N)=O)nc(-c3cncc(F)c3)nc21 | 5.00 to 5.29
